runDescription: HILIC, Merck SeQuant ZIC-HILIC, 25 °C, 0.25 mL/min; A: water + 16 mM ammonium formate; B: acetonitrile + 0.1% formic acid, pH 3; gradient (min/%B) 0/97 2/97 10/70 15/10 17/10 18/97 25/97
studyConditions: stereoisomer not certain
So I've got a bunch of molecules here, and I need their LC retention time values.
Number only, in min; omit the unit.

**Q:** Report LC retention time for O=C[C@H](O)[C@H](O)CO [D-(-)-Erythrose] please.
**A:** 8.22

**Q:** Item: CC(CCC(=O)O)C1CCC2C3C(O)CC4CC(O)CCC4(C)C3CC(O)C12C (stereo not drawn) [CHOLATE]
**A:** 2.18

**Q:** Also, Cc1cnc(C)cn1 [2-5-DIMETHYLPYRAZINE] please.
**A:** 2.19

**Q:** One more molecule: Nc1ccnc(=O)[nH]1 [CYTOSINE]
**A:** 12

**Q:** Next: NC(CO)Cc1cnc[nH]1 (stereo not drawn) [HISTIDINOL]
**A:** 17

**Q:** Similarly, Nc1ncnc2c1ncn2C1CC(O)C(COP(=O)(O)O)O1 (stereo not drawn) [DEOXYADENOSINE MONOPHOSPHATE] ?
**A:** 13.3

**Q:** What do you have for CC(=O)CC(=O)[O-] [ACETOACETATE] ?
**A:** 1.91

**Q:** Okay, and Cn1c(=O)[nH]c(=O)c2c1[nH]c(=O)n2C [3-7-Dimethyluric acid] ?
**A:** 2.24

###

Provide the reported LC retention time of each item.
runDescription: HILIC, Merck SeQuant ZIC-HILIC, 25 °C, 0.25 mL/min; A: water + 16 mM ammonium formate; B: acetonitrile + 0.1% formic acid, pH 3; gradient (min/%B) 0/97 2/97 10/70 15/10 17/10 18/97 25/97
studyConditions: stereoisomer not certain
All answers are understood in min, so give the number only.

**Q:** # input compound: COc1cc(CC(=O)O)ccc1O [HOMOVANILLATE] ; wanted: its LC retention time
**A:** 2.04

**Q:** Entry Nc1c(O)cccc1C(=O)O [3-HYDROXYANTHRANILATE] please
**A:** 2.15

**Q:** For O=P(O)(O)OCC1OC(OP(=O)(O)OP(=O)(O)O)C(O)C1O (stereo not given) [PHOSPHORIBOSYL PYROPHOSPHATE] then?
**A:** 15.7

**Q:** Could you do the same for CCCCC(O)C(=O)O (stereo not given) [2-hydroxycaproic acid] , please?
**A:** 1.87

**Q:** Continue with O=Cc1cccc(O)c1 [3-HYDROXYBENZALDEHYDE]
**A:** 1.75

**Q:** Now try NC1CCSC1=O (stereo not given) [HOMOCYSTEINE THIOLACTONE] .
**A:** 11.8

**Q:** What do you get for N[C@@H](CO)C(=O)O [L-Serine] ?
**A:** 14.2

**Q:** Same read-out for Nc1ncnc2c1ncn2C1OC(COP(=O)(O)OP(=O)(O)OC2OC(CO)C(O)C(O)C2O)C(O)C1O (stereo not given) [ADP-GLUCOSE] ?
**A:** 14.7

**Q:** CC(=O)OCC(=O)O [Acetoxyacetic acid] ?
**A:** 2.23

**Q:** Repeat with O=C(O)c1cccc(O)c1 [3-HYDROXYBENZOATE]
**A:** 2.15

###

runDescription: HILIC, Merck SeQuant ZIC-HILIC, 25 °C, 0.25 mL/min; A: water + 16 mM ammonium formate; B: acetonitrile + 0.1% formic acid, pH 3; gradient (min/%B) 0/97 2/97 10/70 15/10 17/10 18/97 25/97
studyConditions: stereoisomer not certain
endpointName: LC retention time (min)
Please give a number only; it is taken to be in min.

**Q:** Which LC retention time reading was recorded for the molecule O=C(O)CC(Cc1ccccc1)C(=O)O (racemic) [dl-benzylsuccinic acid] ?
**A:** 2.15

**Q:** Let us now turn to CC(=O)NC(Cc1c[nH]c2ccccc12)C(=O)O (centres undefined) [N-ACETYLTRYPTOPHAN]
**A:** 2.15

**Q:** And for CC(CCC(=O)O)C1CCC2C3CCC4CC(=O)CCC4(C)C3CCC12C (centres undefined) [5b-cholanic acid-3-ONE] ?
**A:** 1.63

**Q:** Query C[C@H](O)CC(=O)O [(S)-3-Hydroxybutyric acid] next
**A:** 2.16

###

runDescription: HILIC, Merck SeQuant ZIC-HILIC, 25 °C, 0.25 mL/min; A: water + 16 mM ammonium formate; B: acetonitrile + 0.1% formic acid, pH 3; gradient (min/%B) 0/97 2/97 10/70 15/10 17/10 18/97 25/97
studyConditions: stereoisomer not certain
endpointName: LC retention time (min)
Enter your answer as a number in min; do not include the unit.

**Q:** Which LC retention time value is on record for Cn1c[n+](C2OC(CO)C(O)C2O)c2nc(N)[nH]c(=O)c21 (stereo unspecified) [7-Methylguanosine] ?
**A:** 12.9

**Q:** Input Nc1ncnc2c1ncn2C1OC(COP(=O)(O)OP(=O)(O)OCC2OC(O)C(O)C2O)C(O)C1O (stereo unspecified) [ADENOSINE DIPHOSPHATE RIBOSE]
**A:** 14.6

**Q:** Same for O=C(O)CCCCCCCC(=O)O [AZELATE]
**A:** 1.84

**Q:** What would you report for OCC1OCC(O)C(O)C1O [1-5-Anhydro-D-sorbitol] ?
**A:** 10.1

**Q:** What about O=C(O)c1ccc(=O)[nH]c1 [6-HYDROXYNICOTINATE] ?
**A:** 6.01

**Q:** Also check CCCCCCCCC=CCCCCCCCCCCCCCC(=O)[O-] [NERVONATE]
**A:** 1.52

**Q:** Lookup CC1OC(n2cnc3c(N)ncnc32)C(O)C1O (stereo unspecified) [5'-DEOXYADENOSINE]
**A:** 2.24

**Q:** Next: CCCCCCCCCCCCCC(=O)OCC(O)COP(=O)([O-])OCC[N+](C)(C)C (stereo unspecified) [14-0_LysoPC]
**A:** 11.3

**Q:** Next entry: CSCC1OC(n2cnc3c(N)ncnc32)C(O)C1O (stereo unspecified) [METHYLTHIOADENOSINE]
**A:** 4.75

**Q:** Next molecule up: Cn1cnc(C[C@H](N)C(=O)O)c1 [1-METHYL-L-HISTIDINE]
**A:** 15.8

**Q:** Please give the result for Cn1cc(C(N)=O)ccc1=O [N-methyl-2-pyridone-5-carboxamide] too.
**A:** 2.21

###

runDescription: HILIC, Merck SeQuant ZIC-HILIC, 25 °C, 0.25 mL/min; A: water + 16 mM ammonium formate; B: acetonitrile + 0.1% formic acid, pH 3; gradient (min/%B) 0/97 2/97 10/70 15/10 17/10 18/97 25/97
studyConditions: stereoisomer not certain
endpointName: LC retention time (min)
# unit: min | format: bare number

**Q:** May I ask what LC retention time has been recorded for O=C(O)CC(O)(CC(=O)O)C(=O)O [CITRATE] ?
**A:** 13

**Q:** Item: NC1C(O)OC(COS(=O)(=O)O)C(O)C1O (centres undefined) [GLUCOSAMINE 6-SULFATE]
**A:** 15.5

**Q:** Also COC(=O)CCCCC(=O)O [mono-Methyl adipate] ?
**A:** 1.71

**Q:** Try this compound too: O=C/C=C/c1ccccc1 [Trans-Cinnamaldehyde]
**A:** 1.57

###

runDescription: HILIC, Merck SeQuant ZIC-HILIC, 25 °C, 0.25 mL/min; A: water + 16 mM ammonium formate; B: acetonitrile + 0.1% formic acid, pH 3; gradient (min/%B) 0/97 2/97 10/70 15/10 17/10 18/97 25/97
studyConditions: stereoisomer not certain
endpointName: LC retention time (min)
Write down the numeric answer in min and omit the unit.

**Q:** Entry Cc1ccccc1C(=O)NCC(=O)O has what LC retention time?
**A:** 1.97

**Q:** Quick one: OCCc1c[nH]c2ccccc12
**A:** 1.82

**Q:** Param item: COc1cc(C(O)C(=O)O)ccc1O (stereo not drawn) [3-METHOXY-4-HYDROXYMANDELATE]
**A:** 4.88

**Q:** Param item: CCCCCCCCC=CCCCCCCCC(=O)OCC(O)COP(=O)([O-])OCC[N+](C)(C)C (stereo not drawn)
**A:** 11.2

**Q:** And what about the molecule NC(=O)[C@@H](N)Cc1c[nH]c2ccccc12 [L-TRYPTOPHANAMIDE] ?
**A:** 11.7

**Q:** What do we get for CCC(NC(=O)CCC(N)C(=O)O)C(=O)NCC(=O)O (stereo not drawn) [OPHTHALMATE] ?
**A:** 14.1

**Q:** And the next one, CC(CCC(=O)O)C1CCC2C3CCC4CC(O)CCC4(C)C3CC(=O)C12C (stereo not drawn) ?
**A:** 1.81

**Q:** Now the molecule CC12CCC(=O)C=C1CCC1C2C(=O)CC2(C)C1CCC2(O)C(=O)CO (stereo not drawn)
**A:** 1.8
